- Test system: HEK-293T
- protocol: Multiplex assay against HEK293T
- Assay type: toxicity, cell-based
- condition details: human, 12 h, 10 µM, compound concentration 10 uM, replicate 1
endpoint: Population Tubulin-Different-Phenotype (%)
Write it as a number; the unit % goes unstated.

Worked cases, answers included:
molecule | number
COc1ccc2c(c1)C(C(=O)N(Cc1ccc(N(C)C)cc1)c1ccc(C(C)C)cc1)CCC2.Cl (centres undefined) | 64
O=C(NCC(=O)N1CC[C@H](N[C@H]2CC[C@@](O)(c3ccc(-c4ncccn4)cn3)CC2)C1)c1cccc(C(F)(F)F)c1 [PF-4136309] | 55
CSc1ccccc1N1CCN(CCCCCC(=O)NC2CCCc3ccccc32)CC1.Cl (centres undefined) | 59

Attention now shifts to the item below.
[Q] Recorded Population Tubulin-Different-Phenotype (%) of N[C@@]1(C(=O)O)CO[C@H]2[C@H](C(=O)O)[C@H]21 [LY-379268] , please.
[A] 31

* * *

- System: U2OS
- protocol: Multiplex assay against U2OS
- Assay type: toxicity, cell-based
- condition details: human, 48 h, 10 µM, compound concentration 10 uM, replicate 1
endpoint: Total Cell Count
Write the value as a bare number.

# example entries with known answers
molecule | Total Cell Count
CCCN1CCC[C@@H]2Cc3n[nH]cc3C[C@H]21.Cl [QUINPIROLE HYDROCHLORIDE] | 386
C[C@@H]1C[C@H]2[C@@H]3CCC4=CC(=O)C=C[C@]4(C)[C@@]3(F)[C@@H](O)C[C@]2(C)[C@@]1(O)C(=O)CO | 497
COc1cc(NC(=O)CCN2CCC(OC(=O)Nc3ccccc3-c3ccccc3)CC2)c(Cl)cc1CNC[C@H](O)c1ccc(O)c2[nH]c(=O)ccc12 | 221

[Q] Please report the recorded Total Cell Count for `C[C@H]1[C@H]2CC[C@H]3[C@@H]4CC=C5C[C@@H](N(C)C)CC[C@]5(C)[C@H]4CC[C@]23CN1C` .
[A] 370

[Q] # lookup: Total Cell Count of `COc1c(C)cc(NC(=O)c2nn(Cc3ccc(F)cc3)c3c2CN(C(=O)c2ccc[nH]2)C[C@]3(C)C(N)=O)cc1C`
[A] 212

[Q] // returns reported Total Cell Count for input CNC[C@H](O)c1ccc(O)c(O)c1 [EPINEPHRINE]
[A] 215

[Q] What value of measured Total Cell Count is listed for CN1CCN2c3ncccc3Cc3ccccc3C2C1 (configuration not stated) ?
[A] 435

* * *

- Test system: Fibroblast
- protocol: Multiplex assay against human fibroblast
- Format: toxicity, cell-based
- condition details: 24 h, 10 µM, compound concentration 10 uM, replicate 2
Rule for this label: fulfilled means Population Pyknosed Nuclei (%) is less than 10%; not fulfilled means Population Pyknosed Nuclei (%) is at least 10%.

compound | cat
C[C@H]1[C@H]2CC[C@H]3[C@@H]4CC=C5C[C@@H](N(C)C)CC[C@]5(C)[C@H]4CC[C@]23CN1C [CONESSINE] | not fulfilled
COc1cc(NC(=O)CCN2CCC(OC(=O)Nc3ccccc3-c3ccccc3)CC2)c(Cl)cc1CNC[C@H](O)c1ccc(O)c2[nH]c(=O)ccc12 [BATEFENTEROL] | fulfilled
CC1(COc2ccc3c(c2)ncn3-c2ccc3cccc(N4CCC(N)CC4)c3n2)COC1 [CRENOLANIB] | not fulfilled
CCCN1CCC[C@@H]2Cc3n[nH]cc3C[C@H]21.Cl [QUINPIROLE HYDROCHLORIDE] | fulfilled
Cc1ccc(/C(=C\CN2CCCC2)c2ccccn2)cc1 [TRIPROLIDINE] | not fulfilled

[Q] Dear reviewer, please state whether COc1ccc2c(c1)C(C(=O)N(Cc1ccc(N(C)C)cc1)c1ccc(C(C)C)cc1)CCC2.Cl (stereo unspecified) has Population Pyknosed Nuclei (%) strictly beneath 10%.
[A] fulfilled

[Q] Record Cl.Clc1ccc2nsnc2c1NC1=NCCN1 [TIZANIDINE HYDROCHLORIDE] : is its Population Pyknosed Nuclei (%) strictly below 10%?
[A] not fulfilled

[Q] Item Cc1ccc(F)cc1C(=O)Nc1ccc(C(=O)N2Cc3cccn3Cc3ccccc32)c(Cl)c1 [LIXIVAPTAN] : Population Pyknosed Nuclei (%) beneath 10%, strictly?
[A] not fulfilled

[Q] Please state whether Population Pyknosed Nuclei (%) is below 10% for C[C@H](NC(=O)c1c(C(F)F)nn(C)c1Oc1cccc(C(F)(F)F)c1)c1ccc(C(=O)O)cc1 [PALUPIPRANT]
[A] not fulfilled

[Q] Just wondering, is Population Pyknosed Nuclei (%) of `CC[C@H]1OC(=O)[C@H](C)[C@@H](O[C@H]2C[C@@](C)(OC)[C@@H](O)[C@H](C)O2)[C@H](C)[C@@H](O[C@@H]2O[C@H](C)C[C@H](N(C)C)[C@H]2O)[C@@]2(C)CC(C)=C(O2)[C@H](C)[C@@H](O)[C@]1(C)O` below 10%?
[A] not fulfilled

[Q] Determine whether this compound shows Population Pyknosed Nuclei (%) lower than 10% (ties excluded): `O=C(NCCO)c1cccc(-c2cc(Nc3ccc(OC(F)(F)F)cc3)ncn2)c1`
[A] not fulfilled

[Q] Just wondering, is Population Pyknosed Nuclei (%) of CSc1ccccc1N1CCN(CCCCCC(=O)NC2CCCc3ccccc32)CC1.Cl (stereo unspecified) below 10%?
[A] fulfilled

[Q] Is the reported Population Pyknosed Nuclei (%) for `CN(C)c1ccnc2sc3c(=O)n(N4CCCCCC4)cnc3c12` strictly below 10%?
[A] not fulfilled

[Q] Bench note: check whether `CN1CCN(c2nc3cc(C(F)(F)F)ccc3n3cccc23)CC1.O=C(O)/C=C\C(=O)O.O=C(O)/C=C\C(=O)O` shows Population Pyknosed Nuclei (%) below 10%
[A] not fulfilled

[Q] Is 10% strictly greater than the compound's reported Population Pyknosed Nuclei (%)? compound: N[C@@]1(C(=O)O)CO[C@H]2[C@H](C(=O)O)[C@H]21 [LY-379268]
[A] not fulfilled

* * *

- Test system: U2OS
- protocol: Multiplex assay against U2OS
- Type: toxicity, cell-based
- condition details: human, 48 h, 1 µM, compound concentration 1 uM, replicate 2
Collected Population Hoechst High Intensity Objects (%) values appear next to each entry.
Unit % implied. Number only.

molecule | number
N#Cc1c(N)nc(SCc2csc(-c3ccc(Cl)cc3)n2)c(C#N)c1-c1ccc(OCCO)cc1 [CAPADENOSON] | 0
O=C(O)Cc1ccccc1Nc1c(Cl)cccc1Cl [DICLOFENAC] | 3

[Q] Using the record for Cl.Clc1ccc2nsnc2c1NC1=NCCN1 [TIZANIDINE HYDROCHLORIDE] , report its Population Hoechst High Intensity Objects (%).
[A] 3

[Q] I am curious: what Population Hoechst High Intensity Objects (%) value has been reported for `COc1c(C)cc(NC(=O)c2nn(Cc3ccc(F)cc3)c3c2CN(C(=O)c2ccc[nH]2)C[C@]3(C)C(N)=O)cc1C` ?
[A] 5

[Q] Look up Population Hoechst High Intensity Objects (%) for this molecule: O=C(O)c1cc2ccccc2c(Cc2c(O)c(C(=O)O)cc3ccccc23)c1O [PAMOIC ACID]
[A] 2

[Q] Which Population Hoechst High Intensity Objects (%) is listed for COc1cc(NC(=O)CCN2CCC(OC(=O)Nc3ccccc3-c3ccccc3)CC2)c(Cl)cc1CNC[C@H](O)c1ccc(O)c2[nH]c(=O)ccc12 [BATEFENTEROL] ?
[A] 4

[Q] Suppose we examine the molecule CCNC1(C(N)=O)CCN(c2ncnc3c2nc(-c2ccccc2Cl)n3-c2ccc(Cl)cc2)CC1 [OTENABANT] ; what Population Hoechst High Intensity Objects (%) value has been reported?
[A] 4

[Q] So what does the record say about Population Hoechst High Intensity Objects (%) for CCCN1CCC[C@@H]2Cc3n[nH]cc3C[C@H]21.Cl [QUINPIROLE HYDROCHLORIDE] ?
[A] 3

* * *

- Test system: HEK-293T
- protocol: Multiplex assay against HEK293T
- Format: toxicity, cell-based
- condition details: human, 12 h, 10 µM, compound concentration 10 uM, replicate 2
endpoint: Population Pyknosed Nuclei (%)

compound | assay system | Population Pyknosed Nuclei (%)
Cc1ccc(C(C)(O)c2nc3ccccc3s2)c(C)c1 (configuration not stated) | HEK-293T | 13%

Attention now shifts to the item below.
[Q] Requested field: Population Pyknosed Nuclei (%). Item: Cl.Clc1ccc2nsnc2c1NC1=NCCN1 [TIZANIDINE HYDROCHLORIDE]
[A] 13%

* * *

- System: HEK-293T
- protocol: Multiplex assay against HEK293T
- Type: toxicity, cell-based
- condition details: human, 12 h, 10 µM, compound concentration 10 uM, replicate 2
Population Healthy Nuclei (%): recorded values
Give the value, in units of %, as a plain number.

Example cases with answers are listed next.
compound | endpoint | number
O=C1COc2nccc(-c3ccccc3F)c2CN1Cc1cc(C(F)(F)F)cc(C(F)(F)F)c1 | Population Healthy Nuclei (%) | 79
Cc1ccc(C(C)(O)c2nc3ccccc3s2)c(C)c1 (centres undefined) | Population Healthy Nuclei (%) | 78

[Q] # value lookup — system HEK-293T, readout Population Healthy Nuclei (%), item `O=C(NCC(=O)N1CC[C@H](N[C@H]2CC[C@@](O)(c3ccc(-c4ncccn4)cn3)CC2)C1)c1cccc(C(F)(F)F)c1`
[A] 81

[Q] Return Population Healthy Nuclei (%) measured with HEK-293T given this compound: `COc1cc(C(=O)N(CCCc2ccccc2)Cc2ccc(CC(=O)O)cc2)cc(OC)c1C`
[A] 82
